Below, each entry is listed alongside its reported ADCP (Donor A19143143#) Minimum phagocytosis %.
- measuredTarget: T1, human Trop2 on cells (human, UniProt P09758 27-323)
- T1 sequence (looked up): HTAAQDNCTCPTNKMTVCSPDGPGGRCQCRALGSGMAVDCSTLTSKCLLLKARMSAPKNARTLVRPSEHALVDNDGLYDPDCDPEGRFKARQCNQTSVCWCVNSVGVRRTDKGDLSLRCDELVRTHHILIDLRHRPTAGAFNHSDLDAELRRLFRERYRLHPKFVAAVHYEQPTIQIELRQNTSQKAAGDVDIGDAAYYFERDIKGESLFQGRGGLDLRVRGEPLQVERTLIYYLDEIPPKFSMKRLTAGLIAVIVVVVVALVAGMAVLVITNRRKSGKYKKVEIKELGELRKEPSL
- experimentalDetails: cell-based or functional assay
Respond with the bare value in %.

Recorded ADCP (Donor A19143143#) Minimum phagocytosis %, per entry:
PR001165 (antibody, human IgG1, kappa, V domains shown, fully human IgG1/kappa; also called antibody No. (26)) VH: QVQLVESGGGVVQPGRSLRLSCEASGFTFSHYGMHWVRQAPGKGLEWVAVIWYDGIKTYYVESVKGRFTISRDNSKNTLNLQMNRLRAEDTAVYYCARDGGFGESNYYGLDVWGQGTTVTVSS VL: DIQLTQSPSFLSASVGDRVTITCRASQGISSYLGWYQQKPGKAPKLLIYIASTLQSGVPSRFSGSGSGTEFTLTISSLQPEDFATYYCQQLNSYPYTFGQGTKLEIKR : 1.37
comparative example 2 antibody Tab (hRS7) (antibody, human IgG1, kappa, V domains shown, prepared on the basis of sacituzumab govitecan (ChemPartner, #T07-001); naked antibody) VH: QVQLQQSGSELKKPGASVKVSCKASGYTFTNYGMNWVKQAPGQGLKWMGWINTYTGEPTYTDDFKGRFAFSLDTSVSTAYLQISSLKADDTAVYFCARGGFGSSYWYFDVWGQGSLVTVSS VL: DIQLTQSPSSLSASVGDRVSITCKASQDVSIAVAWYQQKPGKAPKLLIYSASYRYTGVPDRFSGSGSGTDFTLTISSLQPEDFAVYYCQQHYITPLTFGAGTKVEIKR : 1.04
PR001142 (antibody, human IgG1, kappa, V domains shown, fully human IgG1/kappa; also called antibody No. (9)) VH: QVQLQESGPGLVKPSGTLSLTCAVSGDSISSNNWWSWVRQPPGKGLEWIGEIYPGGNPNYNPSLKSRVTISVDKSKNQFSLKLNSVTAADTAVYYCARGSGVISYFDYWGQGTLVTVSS VL: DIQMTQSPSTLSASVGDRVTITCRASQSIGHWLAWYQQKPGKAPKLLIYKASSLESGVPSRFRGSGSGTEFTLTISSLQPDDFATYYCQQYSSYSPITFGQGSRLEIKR : 1.75

Shift focus to the following entry.
Query block: Looking for the measured ADCP (Donor A19143143#) Minimum phagocytosis % of PR001166 (antibody, human IgG1, kappa, V domains shown, fully human IgG1/kappa; also called antibody No. (27)) VH: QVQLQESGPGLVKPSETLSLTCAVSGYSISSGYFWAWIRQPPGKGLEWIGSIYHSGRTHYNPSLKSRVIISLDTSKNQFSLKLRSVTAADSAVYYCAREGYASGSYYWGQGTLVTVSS VL: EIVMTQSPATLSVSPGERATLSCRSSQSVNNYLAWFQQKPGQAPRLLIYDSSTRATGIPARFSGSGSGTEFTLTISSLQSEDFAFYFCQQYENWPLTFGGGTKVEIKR , can you help?
Result block: 2.04
